Biological target: AHR (Homo sapiens, UniProt P35869)
Construct: U87 MG glioblastoma cells (ATCC #HTB-14) endogenously expressing AHR; endogenous in cells; host or cells: U87 MG glioblastoma cells (ATCC #HTB-14)
Sequence (P35869 11-848): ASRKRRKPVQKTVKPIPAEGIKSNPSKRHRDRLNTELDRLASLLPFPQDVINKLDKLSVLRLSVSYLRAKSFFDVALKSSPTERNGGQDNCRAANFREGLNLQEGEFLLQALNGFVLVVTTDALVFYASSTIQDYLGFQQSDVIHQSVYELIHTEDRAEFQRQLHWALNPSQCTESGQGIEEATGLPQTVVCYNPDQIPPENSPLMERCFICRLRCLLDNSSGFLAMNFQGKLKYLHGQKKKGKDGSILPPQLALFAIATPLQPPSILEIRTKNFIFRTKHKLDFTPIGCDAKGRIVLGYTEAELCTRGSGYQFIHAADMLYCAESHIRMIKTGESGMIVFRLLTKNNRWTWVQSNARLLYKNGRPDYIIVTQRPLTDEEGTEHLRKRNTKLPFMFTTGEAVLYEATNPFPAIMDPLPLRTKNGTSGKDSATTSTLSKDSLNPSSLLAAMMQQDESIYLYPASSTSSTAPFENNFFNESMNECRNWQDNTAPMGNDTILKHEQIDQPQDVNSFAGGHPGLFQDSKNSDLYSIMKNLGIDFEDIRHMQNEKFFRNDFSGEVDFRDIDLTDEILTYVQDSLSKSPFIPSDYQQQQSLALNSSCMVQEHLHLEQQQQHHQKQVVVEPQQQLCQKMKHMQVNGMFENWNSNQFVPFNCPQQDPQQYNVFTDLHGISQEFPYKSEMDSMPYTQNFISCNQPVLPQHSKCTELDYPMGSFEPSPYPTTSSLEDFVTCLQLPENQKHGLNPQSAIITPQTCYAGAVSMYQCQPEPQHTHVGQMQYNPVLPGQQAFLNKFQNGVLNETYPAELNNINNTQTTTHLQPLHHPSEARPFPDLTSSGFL
Assay: In vitro assay 1: antagonism in human cell line (AHR transactivation, firefly luciferase reporter, kynurenic acid prestimulated)
Type: cell-based
Conditions: AHR Antagonism Human IC50 [M]
ENDPOINT NAME: IC50

Sample records with IC50:
O=C1NCC[C@H]1Nc1nc2ccccc2c2nc(-c3cc(C(F)(F)F)cc(C(F)(F)F)c3)nn12 [Example 360] = > 2e-05 M
CC[C@@H](Nc1nc2ccccc2c2nc(-c3ccc(OC)cc3OC(F)(F)F)nn12)C(N)=O [Example 511] = 7.5e-09 M
Cn1cc(-c2nc3c4cccc(F)c4nc(N[C@@H]4CNCCNC4=O)n3n2)cn1 [Example 428] = 2.44e-06 M
COc1ccc(-c2nc3c4ccccc4nc(N[C@H](C)C(=O)NC4CCCCC4)n3n2)cc1 [Example 665] = 1.87e-08 M
CN1CC[C@@H](Nc2nc3c(C(F)(F)F)cccc3c3nc(-c4cnn(C)c4)nn23)C1=O [Example 733] = 2.58e-07 M

Note IC50 for the molecule shown: COc1ccc(-c2nc3c4cccc(Br)c4nc(N[C@H]4CCCCNC4=O)n3n2)c(OC(F)(F)F)c1 [Example 566] 1.76e-07 M

Please supply the value of reported IC50 for the item Cn1cc(-c2nc3c4cc(F)ccc4nc(N[C@@H]4CCCCNC4=O)n3n2)cn1 [Example 232] 8.83e-09 M

---

compounds and their reported IC50
Biological target: AHR (Mus musculus, UniProt P30561)
Sequence (P30561 whole entry P471L/N533S/M589L, form open): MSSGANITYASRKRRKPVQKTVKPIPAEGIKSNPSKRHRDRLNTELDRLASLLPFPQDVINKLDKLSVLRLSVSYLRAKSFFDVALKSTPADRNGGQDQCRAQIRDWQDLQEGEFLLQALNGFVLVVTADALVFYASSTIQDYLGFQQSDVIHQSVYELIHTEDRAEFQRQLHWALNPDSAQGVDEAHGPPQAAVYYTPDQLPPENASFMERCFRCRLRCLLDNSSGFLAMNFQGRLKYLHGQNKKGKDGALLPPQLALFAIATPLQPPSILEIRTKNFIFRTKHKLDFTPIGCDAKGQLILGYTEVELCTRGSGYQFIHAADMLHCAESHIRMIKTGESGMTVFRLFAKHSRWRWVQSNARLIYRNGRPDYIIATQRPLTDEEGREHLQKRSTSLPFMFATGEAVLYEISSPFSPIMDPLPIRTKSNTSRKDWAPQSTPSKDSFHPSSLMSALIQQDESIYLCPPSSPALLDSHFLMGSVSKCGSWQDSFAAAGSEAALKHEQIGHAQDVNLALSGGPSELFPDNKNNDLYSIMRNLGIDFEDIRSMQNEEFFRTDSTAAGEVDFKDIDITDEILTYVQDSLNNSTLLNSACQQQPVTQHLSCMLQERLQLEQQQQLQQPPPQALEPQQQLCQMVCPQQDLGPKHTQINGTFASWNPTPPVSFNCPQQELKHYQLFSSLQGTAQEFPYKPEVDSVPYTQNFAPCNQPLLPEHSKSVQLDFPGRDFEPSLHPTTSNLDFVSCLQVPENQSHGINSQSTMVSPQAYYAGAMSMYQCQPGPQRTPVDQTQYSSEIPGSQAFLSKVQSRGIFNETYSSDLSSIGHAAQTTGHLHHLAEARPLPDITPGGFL
Experiment: In vitro assay 3: antagonism in mouse cell line (AHR transactivation, firefly luciferase reporter, kynurenic acid prestimulated)
Type: cell-based
Details: Hepa 1c1c7 cells, 200 μM kynurenic acid, 20 hours, firefly luciferase reporter, read-out: AHR Antagonism Mouse IC50
The figure you give is taken to be in nM; do not add the unit.

Below: 5 compounds and their reported IC50.
CC(C)n1cc(-c2nc3c4cccc(C5CC5)c4nc(N[C@@H]4CCCCNC4=O)n3n2)cn1 = 71.5
Cn1cc(-c2nc3c4cccc(Br)c4nc(N[C@H]4CSCCNC4=O)n3n2)cn1 = 3.01
COc1ccc(-c2nc3c4cccc(Br)c4nc(N[C@@H](C(=O)N4CCOCC4)C(C)C)n3n2)cc1 = 4.14
C[C@@H](Nc1nc2c(Br)cccc2c2nc(-c3cnn(C)c3)nn12)C(=O)NCCN1CCCCC1 = 133
Cc1c(-c2nc3c4cccc(Br)c4nc(N[C@@H]4CNCCNC4=O)n3n2)cnn1C = 10.5

# return IC50 for CCCNC(=O)[C@H](C)Nc1nc2c(Br)cccc2c2nc(-c3ccc(Cl)cc3OC(F)F)nn12 , test system: AHR (Mus musculus, UniProt P30561) 12.5

Retrieve IC50 on AHR (Mus musculus, UniProt P30561); query C[C@@H](Nc1nc2c(Br)cccc2c2nc(-c3cnn(C)c3)nn12)C(=O)NCCN(C)C(=O)OC(C)(C)C 24.8

Output reported IC50 of the compound COc1ccc(-c2nc3c4cccc(Br)c4nc(N[C@H](C)C(=O)NCCCN(C)C)n3n2)cc1 on AHR (Mus musculus, UniProt P30561). 9.05

Tell me its IC50 on AHR (Mus musculus, UniProt P30561): COc1ccc(-c2nc3c4cccc(Br)c4nc(N[C@H](C)C(=O)NCCN4CCN(C(=O)OC(C)(C)C)CC4)n3n2)cc1 9.3

Look up and report IC50, with AHR (Mus musculus, UniProt P30561) as system, for COc1ccc(-c2nc3c4cccc(Br)c4nc(N[C@H](C)C(=O)N4CCN(C)CC4)n3n2)cc1 2.08

src = patent US20230113037A1
